Attribution: patent US20240254066A1

test system: tonic hind limb extensor convulsions (mouse model of generalised seizure); experiment: mini-MEST (maximal electroshock seizure threshold) test in the mouse; settings: 50 mg/kg i.p., test 30 min post dose
readout kind: CC50 +/− SEM

compound | CC50 +/− SEM
C=C(C)[C@@H]1C[C@H](O)C(C)=C[C@H]1c1c(O)cc(/C=C/C)cc1O [Compound 7] | 75.0 ± 3.4 mA
C=C(C)[C@@H]1C[C@H](O)C(C)=C[C@H]1c1c(O)cc(-c2ccc(OC)nc2)cc1O [Compound 17] | >114 mA
C=C(C)[C@@H]1C[C@H](O)C(C)=C[C@H]1c1c(O)cc(-c2cnn(C)c2)cc1O [Compound 10] | 31.0 +/− 0.2 mA
C=C(C)[C@@H]1C[C@H](O)C(C)=C[C@H]1c1c(O)c(C)c(-c2ccnc(OC)c2)c(C)c1O [Compound 52] | 76.5 ± 2.6 mA
C=C(C)[C@@H]1C[C@H](O)C(C)=C[C@H]1c1c(O)cc(-c2cccc(OC)c2)cc1O [Compound 15] | >114 mA
C=C(C)[C@@H]1C[C@H](O)C(C)=C[C@H]1c1c(O)cc(-c2ccc(OC)cc2)cc1O [Compound 33] | 79.5 ± 0.9 mA
C=C(C)[C@@H]1C[C@H](O)C(C)=C[C@H]1c1c(O)cc(-c2cccc3c2OCO3)cc1O [Compound 42] | >131.0 mA

Lab note: C=C(C)[C@@H]1C[C@H](O)C(C)=C[C@H]1c1c(O)cc(Cl)cc1O [Compound 2] gave CC50 +/− SEM of >114 mA

---

system: tonic hind limb extensor convulsions (mouse model of generalised seizure); test: mini-MEST (maximal electroshock seizure threshold) test in the mouse; conditions: 50 mg/kg i.p., test 30 min post dose
readout kind: CC50 +/− SEM (mA)
Please give a number only; it is taken to be in mA.

Field: example entries. Status: answers known.
compound | readout kind | recorded measurement
C=C(C)[C@@H]1C[C@H](O)C(C)=C[C@H]1c1c(O)cc(-c2ccccc2OC)cc1O [Compound 29] | CC50 +/− SEM | 70.5
C=C(C)[C@@H]1C[C@H](O)C(C)=C[C@H]1c1c(O)cc(CCC)c(Cl)c1O [Compound 46] | CC50 +/− SEM | 84.0
C=C(C)[C@@H]1C[C@H](O)C(C)=C[C@H]1c1c(O)cc(C2=CCOCC2)cc1O [Compound 26] | CC50 +/− SEM | 50.0

Lab note: C=C(C)[C@@H]1C[C@H](O)C(C)=C[C@H]1c1c(O)cc(-c2cccc(OC(F)F)c2)cc1O [Compound 31] gave CC50 +/− SEM of 79.5

Lab note: C=C(C)[C@@H]1C[C@H](O)C(C)=C[C@H]1c1c(O)cc(-c2ccc(F)cc2)cc1O [Compound 18] gave CC50 +/− SEM of 61.5

Lab note: C=C(C)[C@@H]1C[C@H](O)C(C)=C[C@H]1c1c(O)cc(C2CC2)cc1O [Compound 8] gave CC50 +/− SEM of 58.2

Lab note: C=C(C)[C@@H]1C[C@H](O)C(C)=C[C@H]1c1c(O)cc(-c2ccc(OC(F)F)nc2)cc1O [Compound 19] gave CC50 +/− SEM of 97.5

Lab note: C=C(C)[C@@H]1C[C@H](O)C(C)=C[C@H]1c1c(O)cc(-c2ccnc(C(F)(F)F)c2)cc1O [Compound 58] gave CC50 +/− SEM of 88.5

Lab note: C=C(C)[C@@H]1C[C@H](O)C(C)=C[C@H]1c1c(O)cc(-c2cccc(OC)c2)c(Cl)c1O [Compound 49] gave CC50 +/− SEM of 97.5
